# Tested on: Mus musculus
# ASSAY_TEXT: Antiinflammatory activity in BALB/c mouse assessed as inhibition of carrageenan-induced paw edema at 200 mg/kg, po after 360 mins
# Format: functional
# TEST_SETTINGS: 6 h
QUANTITY: inhibition in vivo at 200 mg/kg
Hi, when you answer, please include the unit after the number. Thanks!

Example molecules with recorded inhibition in vivo at 200 mg/kg:
SUBSTANCE_SMILES	inhibition in vivo at 200 mg/kg
COc1ccc(CCc2nnc3n2N=C(c2ccccc2)CS3)cc1	37.5%
COc1cc(CCc2nnc3n2N=C(c2ccc(F)cc2)CS3)cc(OC)c1OC	23%
COc1ccc(CCc2nnc3n2N=C(c2ccc(Cl)cc2)CS3)cc1	50%
COc1ccc(CCc2n[nH]c(=S)n2N)cc1	37.5%
COc1ccc(Cc2nnc3n2N=C(c2ccc(Cl)cc2)CS3)cc1	38.9%

Please give inhibition in vivo at 200 mg/kg for each item listed below.
1. COc1cc(CCc2n[nH]c(=S)n2N)cc(OC)c1OC
2. COc1cc(Cc2nnc3n2N=C(c2ccc(Cl)cc2)CS3)cc(OC)c1OC
3. COc1ccc(Cc2n[nH]c(=S)n2N)cc1
4. COc1ccc(Cc2nnc3n2N=C(c2ccc(F)cc2)CS3)cc1
5. COc1ccc(CCc2nnc3n2N=C(c2ccc(F)cc2)CS3)cc1
6. COc1cc(Cc2nnc3n2N=C(c2ccccc2)CS3)cc(OC)c1OC

41.7%
25%
33.3%
41.7%
27.1%
33.3%

====

Could you please report measured inhibition in vivo at 50 mg/kg for the items listed next?
# Tested on: Mus musculus
# ASSAY_TEXT: Analgesic activity in BALB/c mouse assessed as decrease in acetic acid-induced writhing at 50 mg/kg, po administered 1 hr prior to acetic acid challenge by Koster's test
# Type: functional
One number for each entry, in %.

Example molecules with recorded inhibition in vivo at 50 mg/kg:
SUBSTANCE_SMILES	QUANTITY	U	REPORTED
COc1cc(Cc2nnc3n2N=C(c2ccccc2)CS3)cc(OC)c1OC	inhibition in vivo at 50 mg/kg	%	32.4
COc1cc(CCc2n[nH]c(=S)n2N)cc(OC)c1OC	inhibition in vivo at 50 mg/kg	%	23.1
COc1ccc(Cc2nnc3n2N=C(c2ccc(F)cc2)CS3)cc1	inhibition in vivo at 50 mg/kg	%	20.5

Please give inhibition in vivo at 50 mg/kg for each item listed below.
1. COc1cc(CCc2nnc3n2N=C(c2ccc(Cl)cc2)CS3)cc(OC)c1OC
2. COc1cc(Cc2n[nH]c(=S)n2N)cc(OC)c1OC
3. COc1ccc(Cc2nnc3n2N=C(c2ccc(Cl)cc2)CS3)cc1
4. COc1cc(CCc2nnc3n2N=C(c2ccc(F)cc2)CS3)cc(OC)c1OC

[28.5, 21.6, 9.9, 35.2]

====

# System: Mus musculus
# ASSAY_TEXT: Antiinflammatory activity in BALB/c mouse assessed as inhibition of carrageenan-induced paw edema at 200 mg/kg, po after 360 mins
# Format: functional
# TEST_SETTINGS: 6 h
Could you please report measured inhibition in vivo at 200 mg/kg for the items listed next?
Hi, when you answer, please include the unit after the number. Thanks!

SUBSTANCE_SMILES	SYSTEM_TESTED	REPORTED
COc1cc(Cc2nnc3n2N=C(c2ccc(F)cc2)CS3)cc(OC)c1OC	Mus musculus	25%
COc1cc(Cc2n[nH]c(=S)n2N)cc(OC)c1OC	Mus musculus	21.2%

Please give inhibition in vivo at 200 mg/kg for each item listed below.
1. COc1cc(CCc2nnc3n2N=C(c2ccc(Cl)cc2)CS3)cc(OC)c1OC
2. COc1cc(CCc2nnc3n2N=C(c2ccccc2)CS3)cc(OC)c1OC

25%
29.2%

====

# Tested on: Mus musculus
# ASSAY_TEXT: Antiinflammatory activity in BALB/c mouse assessed as inhibition of carrageenan-induced paw edema at 200 mg/kg, po after 270 mins
# TEST_SETTINGS: 4.5 h
Could you please report measured inhibition in vivo at 200 mg/kg for the items listed next?
Numbers only, in %.

Please give inhibition in vivo at 200 mg/kg for each item listed below.
1. COc1ccc(CCc2nnc3n2N=C(c2ccccc2)CS3)cc1
2. COc1cc(Cc2nnc3n2N=C(c2ccc(F)cc2)CS3)cc(OC)c1OC

[50, 24.9]

====

# System: Mus musculus
# ASSAY_TEXT: Analgesic activity in BALB/c mouse assessed as decrease in acetic acid-induced writhing at 50 mg/kg, po administered 1 hr prior to acetic acid challenge by Koster's test
# Format: functional
Threshold rule: inhibition in vivo at 50 mg/kg greater than or equal to 10% is 1.0; below that, 0.0.

Below are worked cases with known answers.
SUBSTANCE_SMILES	CAT
COc1ccc(Cc2nnc3n2N=C(c2ccccc2)CS3)cc1	1.0
COc1ccc(Cc2n[nH]c(=S)n2N)cc1	1.0
COc1cc(Cc2nnc3n2N=C(c2ccc(Cl)cc2)CS3)cc(OC)c1OC	1.0
COc1ccc(CCc2nnc3n2N=C(c2ccc(F)cc2)CS3)cc1	1.0
COc1ccc(CCc2nnc3n2N=C(c2ccccc2)CS3)cc1	0.0

For this compound, is measured inhibition in vivo at 50 mg/kg 10% or higher? "COc1ccc(CCc2n[nH]c(=S)n2N)cc1" 0.0

Subsequent entry: "COc1cc(Cc2nnc3n2N=C(c2ccc(F)cc2)CS3)cc(OC)c1OC" 1.0

Subsequent entry: "COc1cc(CCc2nnc3n2N=C(c2ccccc2)CS3)cc(OC)c1OC" 1.0

Subsequent entry: "COc1ccc(CCc2nnc3n2N=C(c2ccc(Cl)cc2)CS3)cc1" 1.0

====

# System: Mus musculus
# ASSAY_TEXT: Antiinflammatory activity in BALB/c mouse assessed as inhibition of carrageenan-induced paw edema at 200 mg/kg, po after 270 mins
# TEST_SETTINGS: 4.5 h
QUANTITY: inhibition in vivo at 200 mg/kg (%)
Give bare numbers, in %.

Example molecules with recorded inhibition in vivo at 200 mg/kg:
SUBSTANCE_SMILES	REPORTED
COc1cc(Cc2nnc3n2N=C(c2ccccc2)CS3)cc(OC)c1OC	32.2
COc1cc(Cc2nnc3n2N=C(c2ccc(Cl)cc2)CS3)cc(OC)c1OC	41
COc1ccc(CCc2n[nH]c(=S)n2N)cc1	33.9
COc1cc(CCc2nnc3n2N=C(c2ccccc2)CS3)cc(OC)c1OC	46.4
COc1ccc(Cc2nnc3n2N=C(c2ccc(F)cc2)CS3)cc1	53.6

Please give inhibition in vivo at 200 mg/kg for each item listed below.
1. COc1cc(CCc2nnc3n2N=C(c2ccc(F)cc2)CS3)cc(OC)c1OC
2. COc1ccc(Cc2nnc3n2N=C(c2ccc(Cl)cc2)CS3)cc1
3. COc1ccc(CCc2nnc3n2N=C(c2ccc(F)cc2)CS3)cc1

[46.4, 25, 34]

Please give inhibition in vivo at 200 mg/kg for each item listed below.
1. COc1cc(CCc2nnc3n2N=C(c2ccc(Cl)cc2)CS3)cc(OC)c1OC
2. COc1ccc(Cc2n[nH]c(=S)n2N)cc1

[39.1, 32.2]
